# maps each entry to its relative viability
- System: NCI-H520
- protocol: relative viability (nuclei count vs DMSO), 5 days (fraction); higher = more cells survive
- measurement conditions: first compound 0.4 µM
assay endpoint: relative viability

[[record]]
compound = "O=C(O)c1ccc(-c2c[nH]c3ncc(-c4ccccc4)cc23)cc1C1CCCC1 + Nc1nc2[nH]cc(CCc3ccc(C(=O)N[C@@H](CCC(=O)O)C(=O)O)cc3)c2c(=O)[nH]1 [Pemetrexed] (partner 0.2 µM)"
readout_number = 0.655

[[record]]
compound = "O=C(O)c1ccc(-c2c[nH]c3ncc(-c4ccccc4)cc23)cc1C1CCCC1 + COc1cc2c(Oc3ccc(NC(=O)C4(C(=O)Nc5ccc(F)cc5)CC4)cc3F)ccnc2cc1OCCCN1CCOCC1 [Foretinib] (partner 0.25 µM)"
readout_number = 0.78

[[record]]
compound = "O=C(O)c1ccc(-c2c[nH]c3ncc(-c4ccccc4)cc23)cc1C1CCCC1 + Cc1nc(Nc2ncc(C(=O)Nc3c(C)cccc3Cl)s2)cc(N2CCN(CCO)CC2)n1 [Dasatinib] (partner 0.075 µM)"
readout_number = 0.253


Cited source: the supplement of paper PMC10307832
